# test-protocol: Determination of inhibitor concentration in mouse plasma after intraperitoneal and oral dosing
# Assay type: in vivo
# assay-context: IP, 25 mg/kg, vehicle PEG400:H2O pH 2.3 30:70
# Procedure: Blood collection was via ocular bleed at 0.5, 1, 4 hr with the final time point, 7 hour, via intracardiac puncture. The blood was centrifuged to collect plasma, which was then stored at −80° C. until analysis. Samples were prepared for analysis using an internal standard and sodium hydroxide. […] The samples were then analyzed via HPLC or LC-MS. Compound levels were quantitated by generating a standard curve of known compound concentration in mouse plasma.
property-name: Cmax (ng/mL)
Quick note: give the figure in ng/mL, leave out the unit.

// known answers, use as guide
>>> value_reported("C[C@@H]1C[C@H]1C(=O)Nc1cccc(C(=O)c2ccc3c(/C=C/c4ccccn4)n[nH]c3c2)c1 (racemic)")
16005
>>> value_reported("O=C(Nc1cc(Nc2ccc3c(/C=C/c4ccccc4)n[nH]c3c2)ccc1F)c1ccccc1")
39

Would you kindly look at the next entry?
// returns reported Cmax for input O=C(c1cccc(NC(=O)C2C[C@H]2c2ccccc2)c1)c1ccc2c(/C=C/c3ccccn3)n[nH]c2c1 (stereo partly drawn)
623

* * *

# test-protocol: Determination of inhibitor concentration in mouse plasma after intraperitoneal and oral dosing
# Type: in vivo
# assay-context: PO, 50 mg/kg, vehicle PEG400:H2O pH 2.3 60:40
property-name: Cmax (ng/mL)
Quick note: give the figure in ng/mL, leave out the unit.

// known answers, use as guide
>>> value_reported("O=C(Nc1cccc(C(=O)c2ccc3c(/C=C/c4ccccc4)n[nH]c3c2)c1)c1ccncc1 [Example 19(j)]")
1937
>>> value_reported("O=C(c1cccc(NC(=O)c2ccccn2)c1)c1ccc2c(/C=C/c3ccccc3)n[nH]c2c1 [Example 19(k)]")
8
>>> value_reported("CC(=O)c1ccc(C(=O)Nc2cccc(C(=O)c3ccc4c(/C=C/c5ccccn5)n[nH]c4c3)c2)s1 [Example 41(e)]")
113

Would you kindly look at the next entry?
// returns reported Cmax for input Cc1ccc2cc(NC(=O)c3ccccc3Sc3ccc4c(/C=C/c5ccccn5)n[nH]c4c3)ccc2n1 [Example 33(b)]
1496

* * *

# test-protocol: Determination of inhibitor concentration in mouse plasma after intraperitoneal and oral dosing
# Format: in vivo
# assay-context: PO, 50 mg/kg, vehicle PEG400:H2O pH 2.3 60:40
Reported plasma half-life (T1/2) values follow for various molecules

// known answers, use as guide
>>> value_reported("O=C(Nc1cccc(C(=O)c2ccc3c(/C=C/c4ccccn4)n[nH]c3c2)c1)c1ccncc1")
"1.1 h"
>>> value_reported("O=C(Nc1cccc(C(=O)c2ccc3c(-c4nc5ccccc5[nH]4)n[nH]c3c2)c1)c1ccccc1")
"3.0 h"
>>> value_reported("Cc1cc(C(=O)Nc2cccc(C(=O)c3ccc4c(/C=C/c5ccccn5)n[nH]c4c3)c2)n[nH]1")
"0.7 h"

// returns reported plasma half-life (T1/2) for input C/C=C/C(=O)Nc1cccc(C(=O)c2ccc3c(/C=C/c4ccccn4)n[nH]c3c2)c1
2.6 h

* * *

# test-protocol: Determination of inhibitor concentration in mouse plasma after intraperitoneal and oral dosing
# Assay type: in vivo
# assay-context: female, IP, 25 mg/kg, vehicle PEG400:H2O pH 2.3 60:40, read-out: Cmin (7 hr conc.)
Param threshold (100 ng/mL) applies to concentration at 7 h; output Fulfilled when value >= threshold, Not fulfilled when value < threshold.

Is the recorded value of concentration at 7 h equal to or greater than 100 ng/mL for this compound? O=C(c1cccc(NC(=O)c2cccc3[nH]ccc23)c1)c1ccc2c(/C=C/c3ccccn3)n[nH]c2c1 [Example 41(d)]
Fulfilled

What about O=C(Nc1cccc(C(=O)c2ccc3c(/C=C/c4ccccn4)n[nH]c3c2)c1)c1ccncc1 [Example 41(b)] ?
Fulfilled

What about O=C(Nc1cccc(Cl)c1)c1ccccc1Sc1ccc2c(/C=C/c3ccccn3)n[nH]c2c1 [Example 33(d)] ?
Fulfilled

What about O=C(Nc1cccc(C(=O)c2ccc3c(-c4nc5cccnc5[nH]4)n[nH]c3c2)c1)c1ccccc1 [Example 42(d)] ?
Not fulfilled

* * *

Reported Ki values follow for various molecules
# test-system: human CHK1 (FL-CHK1) (Homo sapiens)
# Construct: C-terminally His-tagged full-length human CHK1 (FL-CHK1); made in house; host or cells: baculovirus/insect cell system
# Sequence (O14757 whole entry): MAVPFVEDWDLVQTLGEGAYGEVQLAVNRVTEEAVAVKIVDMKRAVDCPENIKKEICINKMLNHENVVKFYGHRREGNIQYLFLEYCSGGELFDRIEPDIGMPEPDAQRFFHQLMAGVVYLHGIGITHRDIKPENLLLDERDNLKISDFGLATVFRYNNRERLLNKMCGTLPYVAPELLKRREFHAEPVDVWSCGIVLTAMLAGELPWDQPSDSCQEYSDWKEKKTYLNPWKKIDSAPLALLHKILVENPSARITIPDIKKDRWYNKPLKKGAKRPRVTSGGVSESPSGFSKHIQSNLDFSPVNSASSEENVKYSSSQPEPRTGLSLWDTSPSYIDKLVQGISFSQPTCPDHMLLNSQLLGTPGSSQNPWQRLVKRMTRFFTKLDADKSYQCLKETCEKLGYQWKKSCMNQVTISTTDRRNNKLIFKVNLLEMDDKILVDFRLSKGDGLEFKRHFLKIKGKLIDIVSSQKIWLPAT
# test-protocol: CHK1 assay (coupled spectrophotometric, Syntide-2)
# Format: biochemical
# assay-context: Table 3; read-out: CHK-1 Ki
Quick note: give the figure in nM, leave out the unit.

// known answers, use as guide
>>> value_reported("O=C(Nc1ccc(O)c(F)c1)c1ccc2c(-c3nc4ccccc4[nH]3)n[nH]c2c1 [Example 53(g)]")
1500
>>> value_reported("Fc1cccc(/C=C/c2n[nH]c3cc(-c4ccncc4)ccc23)c1 [Example 29(g)]")
68
>>> value_reported("C(=C\\c1n[nH]c2cc(-c3ccnc4[nH]ccc34)ccc12)/c1ccccc1 [Example 52(b)]")
80

Would you kindly look at the next entry?
// returns reported Ki for input C(=C\c1n[nH]c2cc(-c3ccncc3)ccc12)/c1nc2ccccc2[nH]1 [Example 29(q)]
11000

* * *

# test-protocol: Determination of inhibitor concentration in mouse plasma after intraperitoneal and oral dosing
# Format: in vivo
# assay-context: female, IP, 25 mg/kg, vehicle PEG400:H2O pH 2.3 60:40, read-out: Cmin (7 hr conc.)
Reported log10 concentration at 7 h values follow for various compounds
Lab note - concentration at 7 h converted to log10 from values in ng/mL.

// known answers, use as guide
>>> value_reported("O=C(c1cccc(NC(=O)c2ccccn2)c1)c1ccc2c(/C=C/c3ccccc3)n[nH]c2c1")
1.18
>>> value_reported("C/C=C/C(=O)Nc1cccc(C(=O)c2ccc3c(/C=C/c4ccccn4)n[nH]c3c2)c1")
1.76
>>> value_reported("O=C(Nc1cccc(C(=O)c2ccc3c(-c4nc5ccccc5[nH]4)n[nH]c3c2)c1)c1ccccc1")
2.32
>>> value_reported("O=C(Nc1cccc(C(=O)c2ccc3c(/C=C/c4ccccc4)n[nH]c3c2)c1)c1ccncc1")
2.66

// returns reported log10 concentration at 7 h for input O=C(Nc1cccc(C(=O)c2ccc3c(/C=C/c4ccccn4)n[nH]c3c2)c1)c1ccccc1
3.21

What about CC(=O)c1ccc(C(=O)Nc2cccc(C(=O)c3ccc4c(/C=C/c5ccccn5)n[nH]c4c3)c2)s1 [Example 41(e)] ?
2.48

* * *

Reported log10(Ki) values follow for various compounds
# test-system: CDK2/Cyclin A (Homo sapiens, UniProt P24941)
# test-protocol: CDK2/Cyclin A assay ([32P]ATP, Rb fragment)
# Type: biochemical
# assay-context: Table 1
Lab note - Ki converted to log10 from values in nM.

// known answers, use as guide
>>> value_reported("COc1cc(-c2ccc3c(-c4ccc5ccccc5c4)n[nH]c3c2)ccc1O")
2.79
>>> value_reported("Oc1ccc(-c2ccc3c(/C=C/c4ccccc4)n[nH]c3c2)cc1OCc1ccccc1")
3.60
>>> value_reported("COc1cc(-c2ccc3c(-c4ccccc4)n[nH]c3c2)ccc1O")
3.34

// returns reported log10(Ki) for input COc1cc(-c2ccc3c(/C=C/c4ccc(OC)c(OC)c4)n[nH]c3c2)ccc1O
1.28

What about C=CCOc1cc(-c2ccc3c(/C=C/c4ccc(OC)c(OC)c4)n[nH]c3c2)ccc1O ?
2.75

What about COc1cc(-c2ccc3c(/C=C/c4ccc(NC(=O)CN)cc4)n[nH]c3c2)ccc1O ?
0.51

* * *

# test-protocol: Human liver microsome (HLM) assay
# Assay type: in vitro ADME
# assay-context: human liver microsomes, 5 μM test compound
property-name: % remain (HLM, 2 h)
# do not omit the unit; it follows the number

>>> value_reported("O=C(Nc1cccc(Nc2ccc3c(/C=C/c4ccccc4)n[nH]c3c2)c1)c1ccccc1 [Example 13]")
"69%"

// returns reported % remain (HLM, 2 h) for input O=C(Cc1cc(F)cc(F)c1)Nc1cccc(C(=O)c2ccc3c(/C=C/c4ccccn4)n[nH]c3c2)c1 [Example 41(f)]
59%

What about C=C(c1cccc(NC(C)=O)c1)c1ccc2c(/C=C/c3ccccc3)n[nH]c2c1 [Example 23] ?
74%

What about O=C(c1cccc(NC(=O)c2cccc(Cl)n2)c1)c1ccc2c(/C=C/c3ccccc3)n[nH]c2c1 [Example 19(m)] ?
61%

What about O=C(Nc1cccc(Oc2ccc3c(/C=C/c4ccccn4)n[nH]c3c2)c1)c1ccccc1 [Example 31(a)] ?
58%

What about O=C(c1cccc(NC(=O)c2ccccn2)c1)c1ccc2c(/C=C/c3ccccc3)n[nH]c2c1 [Example 19(k)] ?
58%

What about Cc1cc(C(=O)Nc2cccc(C(=O)c3ccc4c(/C=C/c5ccccn5)n[nH]c4c3)c2)n(C)n1 [Example 41(p)] ?
62%

* * *

# test-system: CDK2/Cyclin A (Homo sapiens)
# test-protocol: CDK2/Cyclin A assay ([32P]ATP, Rb fragment)
# Type: biochemical
# assay-context: Table 3
Reported pKi values follow for various compounds
pKi (log units): -log10 of the concentration in mol/L.

>>> value_reported("C(=C\\c1n[nH]c2cc(-c3ccncc3)ccc12)/c1ccc2c(c1)OCO2 [Example 29(r)]")
5.89
>>> value_reported("COc1cccc(/C=C/c2n[nH]c3cc(-c4ccncc4)ccc23)c1 [Example 29(e)]")
5.85

Would you kindly look at the next entry?
Provide value of pKi for this record tested with CDK2/Cyclin A (Homo sapiens): Fc1cccc(/C=C/c2n[nH]c3cc(-c4ccncc4)ccc23)c1F
5.51
